// data source = ChEMBL document CHEMBL1201862

STUDY SYSTEM: UniProt:P34707
Sequence (P34707 whole entry): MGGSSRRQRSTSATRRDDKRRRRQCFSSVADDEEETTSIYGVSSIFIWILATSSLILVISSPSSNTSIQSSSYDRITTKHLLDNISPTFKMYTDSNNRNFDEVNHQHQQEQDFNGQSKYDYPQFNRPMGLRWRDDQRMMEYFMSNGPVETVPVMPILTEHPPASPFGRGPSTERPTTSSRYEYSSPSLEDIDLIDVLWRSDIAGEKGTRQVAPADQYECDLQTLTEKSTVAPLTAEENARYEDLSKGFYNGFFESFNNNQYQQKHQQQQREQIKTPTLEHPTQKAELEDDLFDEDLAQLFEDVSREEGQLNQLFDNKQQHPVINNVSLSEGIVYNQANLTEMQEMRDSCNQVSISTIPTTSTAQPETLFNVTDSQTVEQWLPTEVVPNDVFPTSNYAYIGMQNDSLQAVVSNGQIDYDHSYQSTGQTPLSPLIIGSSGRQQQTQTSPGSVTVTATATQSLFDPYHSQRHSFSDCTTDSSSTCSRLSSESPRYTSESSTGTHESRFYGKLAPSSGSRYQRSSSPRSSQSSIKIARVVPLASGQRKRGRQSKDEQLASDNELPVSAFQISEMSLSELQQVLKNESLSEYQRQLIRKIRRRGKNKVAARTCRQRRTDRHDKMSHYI
Format: functional
Calls of active or inactive are those of the source.
Pick one and only one: True for active, False for inactive

Known results for compounds:
[[record]]
compound = "Brc1cccc(-c2nc(-c3ccncc3)no2)c1"
class_assignment = "True"

[[record]]
compound = "Cc1ccc(NC(=O)C(=O)c2ccc(C)cc2)cc1"
class_assignment = "False"

[[record]]
compound = "CCn1c(SCC(=O)NC2CCCCC2)nnc1-c1cc2cccc(OC)c2o1"
class_assignment = "False"

[[record]]
compound = "COC/C=C/C1=CC2=CC(=O)C(C)(OC(=O)C3CCCC3)C(=O)C2=CO1 (stereo unspecified)"
class_assignment = "False"


Given COCOCCn1cc(CN2CCS(=O)(=O)N(Cc3ccc(-c4cccc(N(C)C)c4)cc3)C(C(C)C)C2=O)nn1 (stereo unspecified) , state the outcome it received in this test.
False

Given "FC(F)(F)c1ccnc(Oc2ccc(C3=NCCS3)cc2)c1" , state the outcome it received in this test.
False
